Task for the reader: assign each of the following compounds its reported IC50.
- target.or.system: Angiotensin II receptor (Rattus norvegicus, UniProt P29089+P25095+P35351)
- test.name: Inhibition of radioligand [3H]angiotensin II binding to angiotensin II receptor of rat adrenal cortical membrane
The reply should be a number in µM, with the unit left off.

Ask: // fetch Angiotensin II receptor (Rattus norvegicus, UniProt P29089+P25095+P35351) IC50 for CCCCc1nc(Cl)c(/C=N/NC2=NCCN2)n1Cc1ccc(-c2ccccc2-c2nn[nH]n2)cc1
Result: 0.29

Ask: // fetch Angiotensin II receptor (Rattus norvegicus, UniProt P29089+P25095+P35351) IC50 for CCCCc1nc(Cl)c(CO)n1Cc1ccc(-c2ccccc2-c2[nH]nnc2C#N)cc1
Result: 0.28

Ask: // fetch Angiotensin II receptor (Rattus norvegicus, UniProt P29089+P25095+P35351) IC50 for CCCCc1nc(Cl)c(/C=N/NS(=O)(=O)c2ccccc2)n1Cc1ccc(-c2ccccc2-c2nn[nH]n2)cc1
Result: 0.66

Ask: // fetch Angiotensin II receptor (Rattus norvegicus, UniProt P29089+P25095+P35351) IC50 for CCCCc1nc(Cl)c(C(=O)OC)n1Cc1ccc(-c2ccccc2C(=O)O)cc1
Result: 0.34

Ask: // fetch Angiotensin II receptor (Rattus norvegicus, UniProt P29089+P25095+P35351) IC50 for CCCCc1nc(Br)c(CO)n1Cc1ccc(-c2ccccc2C(=O)O)cc1
Result: 0.09

Ask: // fetch Angiotensin II receptor (Rattus norvegicus, UniProt P29089+P25095+P35351) IC50 for CCCc1nc(Cl)c(CO)n1Cc1ccc(-c2ccccc2C(=O)O)cc1
Result: 0.16

Ask: // fetch Angiotensin II receptor (Rattus norvegicus, UniProt P29089+P25095+P35351) IC50 for CCCCc1nc(Cl)c(CNC(=O)NC(C)c2cccc3ccccc23)n1Cc1ccc(-c2ccccc2C(=O)O)cc1 (centres undefined)
Result: 0.7

Ask: // fetch Angiotensin II receptor (Rattus norvegicus, UniProt P29089+P25095+P35351) IC50 for CCCCc1nc(C(F)(F)F)c(CO)n1Cc1ccc(-c2ccccc2C(=O)O)cc1
Result: 0.062

Ask: // fetch Angiotensin II receptor (Rattus norvegicus, UniProt P29089+P25095+P35351) IC50 for CCCCc1nc(Cl)c(CO)n1Cc1ccc(-c2ccccc2C(=O)NOCc2ccccc2)cc1
Result: 4.9

Ask: // fetch Angiotensin II receptor (Rattus norvegicus, UniProt P29089+P25095+P35351) IC50 for CCCCc1nc(Cl)c(CO)n1Cc1ccc(-c2ccccc2-c2n[nH]c(C(F)(F)F)n2)cc1
Result: 0.37

Ask: // fetch Angiotensin II receptor (Rattus norvegicus, UniProt P29089+P25095+P35351) IC50 for CCCCc1nc(Cl)c(C(O)c2ccccc2)n1Cc1ccc(-c2ccccc2-c2nn[nH]n2)cc1 (centres undefined)
Result: 0.41

Ask: // fetch Angiotensin II receptor (Rattus norvegicus, UniProt P29089+P25095+P35351) IC50 for CCCCc1nc(Cl)c(CO)n1Cc1ccc(-c2ccccc2C(N)=O)cc1
Result: 35

Ask: // fetch Angiotensin II receptor (Rattus norvegicus, UniProt P29089+P25095+P35351) IC50 for CCCCc1nc(Cl)c(COC)n1Cc1ccc(-c2ccccc2C(=O)NNS(=O)(=O)C(F)(F)F)cc1
Result: 0.2

Ask: // fetch Angiotensin II receptor (Rattus norvegicus, UniProt P29089+P25095+P35351) IC50 for CCCCc1nc(Cl)c(CNC(=O)NC)n1Cc1ccc(-c2ccccc2C(=O)O)cc1
Result: 0.24

Ask: // fetch Angiotensin II receptor (Rattus norvegicus, UniProt P29089+P25095+P35351) IC50 for CCCCc1nc(Cl)c(CO)n1Cc1ccc(-c2ccccc2-c2[nH]nnc2C(=O)OC)cc1
Result: 0.26

Ask: // fetch Angiotensin II receptor (Rattus norvegicus, UniProt P29089+P25095+P35351) IC50 for CCCCc1nc(Cl)c(C=O)n1Cc1ccc(-c2ccccc2-c2[nH]nnc2F)cc1
Result: 13

Ask: // fetch Angiotensin II receptor (Rattus norvegicus, UniProt P29089+P25095+P35351) IC50 for CCCCc1nc(Cl)c(CNC(=O)OC)n1Cc1ccc(-c2ccccc2C(=O)O)cc1
Result: 0.25

* * *

Task for the reader: assign each of the following compounds its reported IC50.
- target.or.system: Angiotensin II receptor (Rattus norvegicus, UniProt P29089+P25095+P35351)
- test.name: Inhibition of radioligand [3H]angiotensin II binding to angiotensin II receptor of rat adrenal cortical membrane
The reply should be a number in nM, with the unit left off.

Ask: I'd like to know its IC50. The compound in question is CCCCc1nc(Cl)c(CO)n1Cc1ccc(-c2ccccc2C(=O)NO)cc1
Result: 4100

Ask: I'd like to know its IC50. The compound in question is CCCCc1nc(Cl)c(C=O)n1Cc1ccc(-c2ccccc2-c2nn[nH]n2)cc1
Result: 20

Ask: I'd like to know its IC50. The compound in question is CCCCc1nc(Cl)c(C(N)=O)n1Cc1ccc(-c2ccccc2C(=O)O)cc1
Result: 150

Ask: I'd like to know its IC50. The compound in question is CCCCc1nc(Cl)c(CNC(=O)OC)n1Cc1ccc(-c2ccccc2-c2nn[nH]n2)cc1
Result: 60

Ask: I'd like to know its IC50. The compound in question is CCCCc1nc(Cl)c(CN)n1Cc1ccc(-c2ccccc2C(=O)O)cc1
Result: 3200

Ask: I'd like to know its IC50. The compound in question is CCCCc1nc(Cl)c(CNC(=O)Nc2cccc3ccccc23)n1Cc1ccc(-c2ccccc2C(=O)O)cc1
Result: 3000

Ask: I'd like to know its IC50. The compound in question is CCCCc1nc([N+](=O)[O-])c(CO)n1Cc1ccc(-c2ccccc2C(=O)O)cc1
Result: 260

Ask: I'd like to know its IC50. The compound in question is CCCCc1nc(Cl)c(CO)n1Cc1ccc(-c2c(OC)cccc2C(=O)O)cc1
Result: 3000

Ask: I'd like to know its IC50. The compound in question is CCCCc1ncc(CO)n1Cc1ccc(-c2ccccc2C(=O)O)cc1
Result: 270

Ask: I'd like to know its IC50. The compound in question is CCCCc1nc(Cl)c(CO)n1Cc1ccc(-c2ccc(OC)cc2-c2nn[nH]n2)cc1
Result: 580

Ask: I'd like to know its IC50. The compound in question is CCCCc1nc(Cl)c(CO)n1Cc1ccc(-c2cc(C#N)ccc2-c2nn[nH]n2)cc1
Result: 510

Ask: I'd like to know its IC50. The compound in question is CCCCCc1nc(Cl)c(CO)n1Cc1ccc(-c2ccccc2C(=O)O)cc1
Result: 980

Ask: I'd like to know its IC50. The compound in question is CCCCc1nc(Cl)c(CNC(=O)OCC)n1Cc1ccc(-c2ccccc2C(=O)O)cc1
Result: 200

Ask: I'd like to know its IC50. The compound in question is CCCCc1nc(Cl)c(CO)n1Cc1ccc(-c2cccc(C)c2C(=O)O)cc1
Result: 1900

Ask: I'd like to know its IC50. The compound in question is CCCCc1nc(Cl)c(C(=O)O)n1Cc1ccc(-c2ccccc2C(=O)O)cc1
Result: 92

Ask: I'd like to know its IC50. The compound in question is CCCCc1nc(Cl)c(CNC(=O)c2cc3c(OCC(O)CNC(C)C)cccc3[nH]2)n1Cc1ccc(-c2ccccc2C(=O)O)cc1 (stereo unspecified)
Result: 380

* * *

- Tested on: Rattus norvegicus
- test.name: Blood pressure lowering activity in renal hypertensive rats after peroral administration
- Format: functional
result.type: Activity

Ask: // fetch Rattus norvegicus Activity for CCCCc1nc(Cl)c(CO)n1Cc1ccc(-c2ccccc2C(=O)NO)cc1
Result: >30 mg/kg

Ask: // fetch Rattus norvegicus Activity for CCCc1nc(C)c(CO)n1Cc1ccc(-c2ccccc2C(=O)O)cc1
Result: >30 mg/kg

Ask: // fetch Rattus norvegicus Activity for CCCCc1nc(Cl)c(CO)n1Cc1ccc(-c2cc(OC)ccc2-c2nn[nH]n2)cc1
Result: >10 mg/kg

Ask: // fetch Rattus norvegicus Activity for CCCCc1nc(Cl)c(C=O)n1Cc1ccc(-c2ccc(-c3nn[nH]n3)cc2)cc1
Result: >30 mg/kg

Ask: // fetch Rattus norvegicus Activity for CCCCc1nc(Cl)c(CO)n1Cc1ccc(-c2ccccc2-c2[nH]nnc2C(=O)OC)cc1
Result: >10 mg/kg

Ask: // fetch Rattus norvegicus Activity for CCCCc1nc(Cl)c(CO)n1Cc1ccc(-c2cc(C#N)ccc2-c2nn[nH]n2)cc1
Result: >30 mg/kg
